# test_description: Cmax in rat at 5 mg/kg, po
# Assay type: ADME, organism-based
# Design: dose 5 mg/kg, route oral
# measurement_conditions: in vivo
The label is true for Cmax below 200 ng/mL and false for Cmax equal to or exceeding 200 ng/mL.

Field: example entries. Status: answers known.
N#CC[C@H]1CC[C@H](c2ccc(N3CCOc4ncnc(N)c4C3=O)cc2)CC1 = true
CC(C)(O)C[C@H]1CC[C@H](c2ccc(N3CCOc4ncnc(N)c4C3=O)cc2)CC1 = true
Cc1noc(C[C@H]2CC[C@H](c3ccc(N4CCOc5ncnc(N)c5C4=O)cc3)CC2)n1 = true

Q: Lab log: compare recorded Cmax with 200 ng/mL; is it strictly lower for NC(=O)C[C@H]1CC[C@H](c2ccc(N3CCOc4ncnc(N)c4C3=O)cc2)CC1 ?
Ans: false

Q: Does the reported Cmax of Nc1ncnc2c1C(=O)N(c1ccc([C@H]3CC[C@H](CC(=O)N4CCOCC4)CC3)cc1)CCO2 stay below 200 ng/mL?
Ans: false

Q: Please determine if Nc1ncnc2c1C(=O)N(c1ccc([C@H]3CC[C@H](CC(=O)O)CC3)cc1)CCO2 [PF-04620110] is below 200 ng/mL in terms of Cmax.
Ans: false

###

# Tested on: Rattus norvegicus
# test_description: AUC in rat at 5 mg/kg, po
# Type: ADME, organism-based, Plasma
# Parameters: dose 5 mg/kg, route oral
# measurement_conditions: in vivo
Listed here are compounds together with their documented AUC.

Nc1ncnc2c1C(=O)N(c1ccc([C@H]3CC[C@H](CC(=O)N4CCOCC4)CC3)cc1)CCO2 = 838 ng·h/mL
Cc1noc(C[C@H]2CC[C@H](c3ccc(N4CCOc5ncnc(N)c5C4=O)cc3)CC2)n1 = 727 ng·h/mL

Q: Look up and state reported AUC for NC(=O)C[C@H]1CC[C@H](c2ccc(N3CCOc4ncnc(N)c4C3=O)cc2)CC1
Ans: 810 ng·h/mL

Q: Answer with the recorded AUC for the compound listed here: CC(C)(O)C[C@H]1CC[C@H](c2ccc(N3CCOc4ncnc(N)c4C3=O)cc2)CC1
Ans: 1260 ng·h/mL

Q: # return recorded AUC for entry Nc1ncnc2c1C(=O)N(c1ccc([C@H]3CC[C@H](CC(=O)O)CC3)cc1)CCO2
Ans: 565 ng·h/mL

Q: For N#CC[C@H]1CC[C@H](c2ccc(N3CCOc4ncnc(N)c4C3=O)cc2)CC1 , write its AUC.
Ans: 801 ng·h/mL

###

# test_description: Apparent clearance in human liver microsomes
# Type: ADME, Microsome
# measurement_conditions: read-out: CLH(app)
This listing pairs compounds with measured CLint scaled.

As a guide, the following entries are already answered.
N#CC[C@H]1CC[C@H](c2ccc(N3CCOc4ncnc(N)c4C3=O)cc2)CC1 = < 0.48 L/h/kg
Nc1ncnc2c1C(=O)N(c1ccc(C3CCN(C(=O)C4CCOCC4)CC3)cc1)CCO2 = < 0.48 L/h/kg
Cc1nnc(C[C@H]2CC[C@H](c3ccc(N4CCOc5ncnc(N)c5C4=O)cc3)CC2)s1 = < 0.48 L/h/kg

Next up:
Q: State its CLint scaled: Nc1ncnc2c1C(=O)N(c1ccc([C@H]3CC[C@H](Cc4nnn[nH]4)CC3)cc1)CCO2
Ans: < 0.48 L/h/kg
